From: PubChem BioAssay (NCATS)

target: Nucleoprotein (Lymphocytic choriomeningitis virus (strain Armstrong)) (UniProt P09992); test: qHTS for Inhibitors of the Functional Ribonucleoprotein Complex (vRNP) of Lymphocytic Choriomeningitis Arenaviruses (LCMV): LCMV Primary Screen - GLuc reporter signal (AID 1347086); conditions: LCMV minigenome vRNP cell assay, Gaussia luciferase reporter; series mostly up to 57.5 µM; note: nearly all actives have a fitted effect of over 70% in size
Sequence (P09992 whole entry, looked up): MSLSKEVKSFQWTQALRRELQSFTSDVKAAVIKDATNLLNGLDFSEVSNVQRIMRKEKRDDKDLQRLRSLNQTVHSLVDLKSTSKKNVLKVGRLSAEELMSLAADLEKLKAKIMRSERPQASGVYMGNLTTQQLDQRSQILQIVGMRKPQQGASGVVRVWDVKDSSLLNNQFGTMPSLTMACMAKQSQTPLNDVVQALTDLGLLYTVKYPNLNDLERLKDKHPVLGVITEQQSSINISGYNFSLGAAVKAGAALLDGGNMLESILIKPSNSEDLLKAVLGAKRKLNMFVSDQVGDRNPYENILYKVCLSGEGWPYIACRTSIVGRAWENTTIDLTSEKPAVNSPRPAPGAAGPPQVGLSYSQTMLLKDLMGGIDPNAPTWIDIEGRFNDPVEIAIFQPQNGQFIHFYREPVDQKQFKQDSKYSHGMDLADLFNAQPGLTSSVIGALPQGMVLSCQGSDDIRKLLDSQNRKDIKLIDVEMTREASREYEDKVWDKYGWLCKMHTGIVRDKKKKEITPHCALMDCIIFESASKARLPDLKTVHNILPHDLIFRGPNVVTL
Records with an inconclusive call do not appear. Calls of active or inactive are those of the source. Calls come from the whole dose curve.
Possible outcomes: 1 (yes) (active), 0 (no) (inactive)

• C[C@@H](NCCCc1cccc(C(F)(F)F)c1)c1cccc2ccccc12 = 0 (no)
• Cc1ccc(-n2[nH]c(C)c(N=Nc3cccc(-c4cccc(C(=O)O)c4)c3O)c2=O)cc1C = 0 (no)
• c1cnc2cc3c(cc2n1)C1CNCC3C1 = 0 (no)
• CC(C)n1c(C=C[C@H](O)C[C@H](O)CC(=O)O)c(-c2ccc(F)cc2)c2ccccc21 = 1 (yes)
• OC(Cn1cncn1)(Cn1cncn1)c1ccc(F)cc1F = 0 (no)
• NCC(O)c1ccc(O)cc1 (configuration not stated) = 0 (no)
• CC(C)NC[C@@H](O)COc1ccc(CC(N)=O)cc1 = 0 (no)
• COc1ccc(OC)c(C(O)CNC(=O)CN)c1 (configuration not stated) = 0 (no)
• NCCc1cc(O)c(O)cc1O = 0 (no)
• CC1(CN2CCC(n3c(=O)[nH]c4ccccc43)CC2)OCc2ccccc2-n2cccc21 (configuration not stated) = 0 (no)
• CC1NCCOC1c1ccccc1 (configuration not stated) = 0 (no)
• CN1CC(=O)N/C1=N/C(=O)Nc1cccc(Cl)c1 = 0 (no)

###

settings: Ebola virus entry assay, ratio channel
Activity calls are given as the source filed them.
Possible outcomes: 1.0 (active), 0.0 (inactive)

• OCCOCCN1CCN(C(c2ccccc2)c2ccc(Cl)cc2)CC1 (stereo not given) = 1.0
• CC(C)c1nc(CN(C)C(=O)N[C@H](C(=O)N[C@@H](Cc2ccccc2)C[C@H](O)[C@H](Cc2ccccc2)NC(=O)OCc2cncs2)C(C)C)cs1 = 1.0
• CCCN1C[C@H](CSC)C[C@@H]2c3cccc4[nH]cc(c34)C[C@H]21 = 1.0
• COC(=O)C1=C(C)NC(C)=C(C(=O)OCC(C)C)C1c1ccccc1[N+](=O)[O-] (stereo not given) = 1.0
• CC/C(=C(\c1ccccc1)c1ccc(OCCN(C)C)cc1)c1ccccc1 = 1.0
• Cc1cccc(C)c1NC(=O)CN1CCCC1=O = 0.0
• CNS(=O)(=O)Cc1ccc2[nH]cc(CCN(C)C)c2c1 = 0.0
• Cc1ccc(S(=O)(=O)N[C@@H](CCCCN)C(=O)CCl)cc1 = 0.0
• CCCSc1ccc2nc(NC(=O)OC)[nH]c2c1 = 1.0
• Oc1ccc(C2CNCCc3c2cc(O)c(O)c3Cl)cc1 (stereo not given) = 0.0
• Cn1cnc([N+](=O)[O-])c1Sc1ncnc2nc[nH]c12 = 0.0
• CCCNCC(O)COc1ccccc1C(=O)CCc1ccccc1 (stereo not given) = 1.0
• Cc1c(O)cccc1C(=O)N[C@@H](CSc1ccccc1)[C@H](O)CN1C[C@H]2CCCC[C@H]2C[C@H]1C(=O)NC(C)(C)C = 0.0
• O=C1OCCN1/N=C/c1ccc([N+](=O)[O-])o1 = 0.0
• CCOC(=O)[C@H](CCc1ccccc1)N[C@@H](C)C(=O)N1[C@H](C(=O)O)C[C@@H]2CCC[C@@H]21 = 0.0
• CCCCNC(=O)NS(=O)(=O)c1ccc(C)cc1 = 0.0
• NS(=O)(=O)Cc1noc2ccccc12 = 0.0
• C[n+]1ccccc1/C=N/O = 0.0
• CN1C[C@H](CNC(=O)OCc2ccccc2)C[C@@H]2c3cccc4c3c(cn4C)C[C@H]21 = 1.0
• CCC(=O)O[C@H]1[C@H](O[C@@H]2[C@@H](C)[C@H](O[C@H]3C[C@@](C)(OC)[C@@H](O)[C@H](C)O3)[C@@H](C)C(=O)O[C@H](CC)[C@@](C)(O)[C@H](O)[C@@H](C)C(=O)[C@H](C)C[C@@]2(C)O)O[C@H](C)C[C@@H]1N(C)C = 1.0

###

assay: Primary qHTS for inhibitors of nuclear receptor binding SET domain protein 2 (NSD2) in an RCH-ACV wild type WT cells (2C) (AID 1645877); conditions: RCH-ACV (leukaemia line) NSD2 WT (2C) viability, CellTiter-Glo, 72 h; series mostly up to 44.9 µM; note: nearly all actives have a fitted effect of over 70% in size
Records with an inconclusive call do not appear. Calls of active or inactive are those of the source. Calls follow the shape of the dose curve; as a rule, active = well fitted inhibition curve with a large enough effect; inconclusive = small, poorly fitted or top-dose-only effect; inactive = no such curve, though single readings can be large or run the other way.
Possible outcomes: Y = active, N = inactive

• O=C(O)c1ccc2[nH]cc(CCCCN3CC=C(c4ccccc4)CC3)c2c1 = N
• CC[C@@H](CO)NC(=O)[C@@H]1C=C2c3cccc4[nH]cc(c34)C[C@H]2N(C)C1 = N
• CC(C)NCC(O)c1ccccc1Cl (centres undefined) = N
• CC(=O)[C@H]1CC[C@H]2[C@@H]3CC[C@H]4C[C@H](O)CC[C@]4(C)[C@H]3C(=O)C[C@]12C = N
• N[C@@H](Cc1ccc(Oc2cc(I)c(O)c(I)c2)c(I)c1)C(=O)O = N
• COc1ccc(Cc2nccc3cc(OC)c(OC)cc23)cc1OC = Y
• Nc1ccncc1 = N
• O=P1(NCCCl)OCCCN1CCCl (centres undefined) = N
• CCCN1CCC[C@@H]2Cc3nc(N)ncc3C[C@H]21 = N
• CCCN1CCC[C@@H]2Cc3[nH]ncc3C[C@H]21 = N
• CNC(=O)c1ccc(N2C(=S)N(c3ccc(C#N)c(C(F)(F)F)c3)C(=O)C23CCC3)cc1F = Y
• C=C1CC[C@@]2(O)[C@H]3Cc4ccc(O)c5c4[C@@]2(CCN3CC2CC2)[C@H]1O5 = N
• COc1ccc(C(=O)c2c(C)n(CCN3CCOCC3)c3ccccc23)cc1 = Y
• CN(C)CCc1ccc(O)cc1 = N
• NN=C(N)N = N
• C#CCN(C)[C@H](C)Cc1ccccc1 = N
• CN(C)CCN(C)CCc1ccc(Cl)c(Cl)c1 = N
• C[C@]12CCC(=O)C(O)=C1CC[C@@H]1[C@@H]2CC[C@]2(C)C(=O)CC[C@@H]12 = N
• CCOP(=S)(OCC)Oc1cc(C)nc(C(C)C)n1 = N
• Cc1ccc(S(=O)(=O)N[C@@H](CCCCN)C(=O)CCl)cc1 = N
• CCC(C(N)=O)N1CCCC1=O (centres undefined) = N
• O=C1NCN(c2ccccc2)C12CCN(CC1COc3ccccc3O1)CC2 (centres undefined) = N
• NP(N)(=O)NC(=O)c1ccc(F)cc1 = N
• CN(C)[C@@H]1C(=O)C(C(N)=O)=C(O)[C@@]2(O)C(=O)C3=C(O)c4c(O)cccc4[C@@](C)(O)[C@H]3C[C@@H]12 = N

###

experiment: Quantitative High-Throughput drug screen in 47 multiple myeloma cell lines against the NCATS MIPE library collection: KMS11_JCRBsus cell viability assay (AID 1919873); conditions: KMS11 myeloma viability, CellTiter-Glo ATP luminescence, 48 h; series mostly up to 45.8 µM; note: nearly all actives have a fitted effect of over 50% in size
Records with an inconclusive call do not appear. The source made the active and inactive calls. Calls follow the shape of the dose curve; as a rule, active = well fitted cell-killing curve with a large enough effect; inconclusive = small, poorly fitted or top-dose-only effect, or effect the other way; inactive = no such curve, though single readings can be large or run the other way.
Possible outcomes: true = active, false = inactive

• CC(C)CC(N(C)C)C1(c2ccc(Cl)cc2)CCC1 (stereo unspecified) = true
• C=C(C)[C@H]1Cc2c(ccc3c2O[C@@H]2COc4cc(OC)c(OC)cc4[C@@H]2C3=O)O1 = true
• CNC(=O)c1ccc(N2C(=S)N(c3ccc(C#N)c(C(F)(F)F)c3)C(=O)C23CCC3)cc1F = false
• COC[C@H]1OC(=O)c2coc3c2[C@@]1(C)C1=C(C3=O)C2CCC(=O)[C@@]2(C)C[C@H]1OC(C)=O (stereo partly specified) = true
• O=C1CC[C@@]2(O)[C@H]3Cc4ccc(O)c5c4[C@@]2(CCN3CC2CC2)[C@H]1O5 = false
• CN(C)[C@@H]1C(=O)C(C(N)=O)=C(O)[C@@]2(O)C(=O)C3=C(O)c4c(O)cccc4[C@@](C)(O)[C@H]3C[C@@H]12 = false
• COC[C@@H](NC(C)=O)C(=O)NCc1ccccc1 = false
• CN(C)CCN(C)CCc1ccc(Cl)c(Cl)c1 = false
• C[C@@H]1O[C@@H](O[C@H]2C[C@@H](O)[C@]3(CO)[C@H]4[C@H](O)C[C@]5(C)[C@@H](C6=CC(=O)OC6)CC[C@]5(O)[C@@H]4CC[C@]3(O)C2)[C@H](O)[C@H](O)[C@H]1O = true
• CN(C)CCc1ccc(O)cc1 = false
• Cc1cccc(C)c1NC(=O)CN1CCCC1=O = false

###

test system: TAB113; assay: qHTS profiling for inhibitors of Plasmodium falciparum proliferation (AID 504749);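 note: 0% = DMSO vehicle and full inhibition = artemisinin control; nearly all actives have a fitted effect of over 60% in size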; conditions: P. falciparum in erythrocytes, SYBR Green DNA, 72 h; series mostly up to 28.7 µM
Records with an inconclusive call do not appear. Active and inactive are the calls of the source. The call rests on the fitted dose curve; in most records, active means well fitted inhibition curve with a large enough effect; inconclusive means small, poorly fitted or top-dose-only effect; inactive means flat fitted curve, though single readings scatter.
observed-property: outcome

• O=C(O)c1ccc2[nH]cc(CCCCN3CC=C(c4ccccc4)CC3)c2c1 = inactive
• NCC(CC(=O)O)c1ccc(Cl)cc1 (stereo not drawn) = inactive
• c1ccc2c(c1)OCC(C1=NCCN1)O2 (stereo not drawn) = inactive
